// data source = patent US20160297884A1

- system-name: T1, Human BCMA (human, UniProt Q02223 1-54, limits assumed)
- T1 construct: Soluble analyte in SPR; construct not described; also called huBCMA; B-cell maturation antigen
- T1 sequence (looked up): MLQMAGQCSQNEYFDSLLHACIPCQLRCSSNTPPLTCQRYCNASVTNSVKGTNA
- test-summary: SPR, IgG immobilised, 37 C
Can you tell me T ½ for the items I'm about to list?

Could you tell me which T ½ is on file for L3.PY/L1.FF/H2.HA (antibody, V domains shown, IgG) VH: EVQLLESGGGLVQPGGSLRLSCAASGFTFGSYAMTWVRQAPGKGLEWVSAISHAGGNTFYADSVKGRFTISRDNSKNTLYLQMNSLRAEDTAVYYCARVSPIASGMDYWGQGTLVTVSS VL: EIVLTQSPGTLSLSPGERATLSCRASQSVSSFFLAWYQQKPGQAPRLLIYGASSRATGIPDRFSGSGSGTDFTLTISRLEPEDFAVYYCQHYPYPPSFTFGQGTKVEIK ?
5.29 min

Could you tell me which T ½ is on file for L3.PY/L1.PS/H3.AQ (antibody, V domains shown, IgG) VH: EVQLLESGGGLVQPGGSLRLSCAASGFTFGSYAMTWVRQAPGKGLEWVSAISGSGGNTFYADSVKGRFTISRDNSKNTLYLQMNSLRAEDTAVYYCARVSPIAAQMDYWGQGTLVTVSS VL: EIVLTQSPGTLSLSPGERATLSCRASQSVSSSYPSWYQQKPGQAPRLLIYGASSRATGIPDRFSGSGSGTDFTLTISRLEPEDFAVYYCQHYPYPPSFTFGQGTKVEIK ?
6.46 min

Could you tell me which T ½ is on file for L3.PY/L3.KY/H3.YA (antibody, V domains shown, IgG) VH: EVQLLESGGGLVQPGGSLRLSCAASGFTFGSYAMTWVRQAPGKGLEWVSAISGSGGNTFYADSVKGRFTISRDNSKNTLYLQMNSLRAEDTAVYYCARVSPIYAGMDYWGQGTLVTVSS VL: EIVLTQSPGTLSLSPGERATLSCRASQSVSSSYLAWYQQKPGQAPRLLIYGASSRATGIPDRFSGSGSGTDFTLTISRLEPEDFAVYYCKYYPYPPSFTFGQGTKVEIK ?
12.7 min

Could you tell me which T ½ is on file for L3.PY/L1.PS/H3.AE (antibody, V domains shown, IgG) VH: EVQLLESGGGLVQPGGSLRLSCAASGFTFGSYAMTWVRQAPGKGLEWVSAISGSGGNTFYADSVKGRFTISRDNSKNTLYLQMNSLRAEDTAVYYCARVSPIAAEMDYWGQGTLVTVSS VL: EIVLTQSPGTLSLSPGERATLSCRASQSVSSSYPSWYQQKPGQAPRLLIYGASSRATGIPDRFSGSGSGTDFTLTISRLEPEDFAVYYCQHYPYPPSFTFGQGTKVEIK ?
7.93 min

Could you tell me which T ½ is on file for L3.PY/L3.KF/H3.YA (antibody, V domains shown, IgG) VH: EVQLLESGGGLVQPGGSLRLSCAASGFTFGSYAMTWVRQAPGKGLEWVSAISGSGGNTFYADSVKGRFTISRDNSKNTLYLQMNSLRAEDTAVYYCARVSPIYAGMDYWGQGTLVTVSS VL: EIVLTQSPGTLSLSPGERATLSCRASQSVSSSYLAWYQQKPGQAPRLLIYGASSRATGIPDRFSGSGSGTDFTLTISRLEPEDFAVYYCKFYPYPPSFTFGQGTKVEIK ?
7.85 min
